Item-by-item account of Kd
Target: T1, human GPC3 (human, UniProt P51654 25-563)
T1 construct: range 25-563; soluble analyte; also called soluble human GPC3; glypican 3
T1 sequence (P51654 25-563 limits assumed): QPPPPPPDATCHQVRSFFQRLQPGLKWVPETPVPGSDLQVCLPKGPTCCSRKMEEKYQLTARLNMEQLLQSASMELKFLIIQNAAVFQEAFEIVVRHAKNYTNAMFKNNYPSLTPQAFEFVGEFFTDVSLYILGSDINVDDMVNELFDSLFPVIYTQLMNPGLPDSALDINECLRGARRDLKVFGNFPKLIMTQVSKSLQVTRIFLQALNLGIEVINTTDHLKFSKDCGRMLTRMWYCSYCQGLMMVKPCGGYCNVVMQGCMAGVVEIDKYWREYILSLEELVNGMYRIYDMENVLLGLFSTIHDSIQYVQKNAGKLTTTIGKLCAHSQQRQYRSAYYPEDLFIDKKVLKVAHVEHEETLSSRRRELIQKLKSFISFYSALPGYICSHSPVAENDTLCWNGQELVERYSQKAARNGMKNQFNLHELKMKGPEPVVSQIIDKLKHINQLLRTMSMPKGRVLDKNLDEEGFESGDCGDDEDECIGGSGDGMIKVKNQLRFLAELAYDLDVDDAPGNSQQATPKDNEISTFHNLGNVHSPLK
Experiment: SPR
# output: bare number, implied unit nM

GCH094-G1dh/none-Hi-Kn010G3/L0271-k0 (antibody, V domains shown, one-arm) VH: QVQLVQSGAEVKKPGASVTVSCKASGYTFTDYEMHWVRQAPGEGLEWMGAIDGETPDTAYSEKFKGRVTLTADKSTSTAYMELSSLTSEDTAVYYCTRFYSYTYWGQGTLVTVSS VL: DIVMTQSPLSLPVTPGEPASISCRSSQPPVHSNRQTYLHWYQQKPGQAPRLLIYKVSNRFSGVPDRFSGSGSGTDFTLKISRVEAEDVGVYYCGQGTQVPYTFGQGTKLEIK
0.692

Okay, next one:
H0610-G1dh/none-Hi-Kn010G3/L0265-k0 (antibody, V domains shown, one-arm) VH: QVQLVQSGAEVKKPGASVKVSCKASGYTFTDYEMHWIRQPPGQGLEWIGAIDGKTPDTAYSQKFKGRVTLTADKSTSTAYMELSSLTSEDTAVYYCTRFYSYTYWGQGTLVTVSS VL: DIVMTQSPLSLPVTPGEPASISCRSSQSPVHSNRNTYIQWYQQKPGQAPRLLIYKVSNRFSGVPDRFSGSGSGTDFTLKISRVEAEDVGVYYCAQGTQVPYTFGQGTKLEIK yielded Kd of 0.0087

Sourced from patent US20250066503A1
